run_description: NCI Yeast Anticancer Drug Screen. Data for the mec2-1 strain (AID 157)
assay_context: S. cerevisiae mec2-1 strain, at 1.2 µM, active compounds read high
About 79,000 compounds went through this panel and 15% of them were active in at least one assay; those are over-represented in the sample as a whole.
The following compounds are shown together with reported growth inhibition values.
Please give a number only; it is taken to be in %.

Illustrative cases are given below, each with its answer.
compound	unit	growth inhibition
O=[N+]([O-])c1cc(S(=O)(=O)Nc2ccccc2)ccc1Cl	%	-10
Cc1ccc(CNc2ccc(Br)cc2)cc1	%	1
c1ccc2c(c1)ccc1c3ccncc3ccc21	%	3
COCCCN(Cc1cc(OC)c(OC)c(OC)c1)C(=S)Nc1cccc(Cl)c1	%	-12
CN(C)c1ccc(N=Nc2ccccn2)cc1	%	-10

Which growth inhibition value belongs to COc1cc([C@@H]2c3cc4c(cc3[C@@H](OC3OC5COC(C)OC5C(O)C3O)[C@H]3COC(=O)[C@H]23)OCO4)cc(OC)c1O (stereo partly specified) ?
-3

Queued: CCN1/C(=C/c2ccc3ccccc3[n+]2CC)C=Cc2ccccc21
-3

What would you report for CCc1nc(N)nc(N)c1-c1ccc(NCCCCCCN)c([N+](=O)[O-])c1 ?
-1

Same question for ClCCn1c(CCl)nc2ccc(Cl)cc21 please.
-27

Entry to check: CC(=O)[C@]1(O)Cc2c(O)c3c(c(O)c2[C@@H](OC2CC(N)C(O)C(C)O2)C1)C(=O)c1c(OCc2ccccc2)cccc1C3=O (stereo partly specified)
4

O=C1C=CC(=Nc2ccccc2)c2ccccc21 ?
5

* * *

The entries below come with measured growth inhibition values attached.
run_description: NCI Yeast Anticancer Drug Screen. Data for the sgs1 mgt1 strain (AID 161);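 also: 0% = growth of cultures given vehicle only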
assay_context: S. cerevisiae sgs1 mgt1 strain, at 50.0 µM (retest, dose inferred, filed as 5.0), active compounds read high
About 79,000 compounds went through this panel and 15% of them were active in at least one assay; those are over-represented in the sample as a whole.
Express it in %; write the number only.

In the examples that follow, each entry is paired with its recorded growth inhibition.
molecule	value_observed
Cc1cc(Cl)nc2nc(Cl)c(N)cc12	55
C=C(CCCO)[C@@H]1CC[C@@](C)(O)[C@H]1C	-9
CCN1/C(=C/c2ccc3ccccc3[n+]2CC)C=Cc2ccccc21	98
CC(=O)Oc1ccc(N2C(=O)C3c4[nH]c5ccccc5c4C4CCC(C(C)(C)C)CC4C3C2=O)cc1 (centres undefined)	98
CCOC(=O)C1=C(C)NC(C)=C(C(=O)OCC)C1c1ccccc1Cl	91
CC(=O)N1C(=O)/C(=C\C(=O)c2ccc([N+](=O)[O-])cc2)c2ccccc21	98
O=C1OC2C(O)COC2(OCc2c[nH]c3ccccc23)C1O (centres undefined) (tested in a mixture with another compound)	48
Nc1cc(S(N)(=O)=O)ccc1SSc1ccc(S(N)(=O)=O)cc1N	55

What does the data say about its growth inhibition? Entry: CCOP1(=O)C=C(Sc2ccc([N+](=O)[O-])cc2[N+](=O)[O-])C(C)(C)O1 (centres undefined)
38

# repeat for CC(=O)OCC1OC(O[C@H]2C=C[C@@H](C(=O)OCc3ccccc3)n3c(=O)n(-c4ccccc4)c(=O)n32)C(OC(C)=O)C(OC(C)=O)C1OC(C)=O (some centres undefined)
78

Another molecule to look at: O=C1c2c(O)cccc2-c2nn(CCNCCO)c3ccc(NCCNCCO)c1c23
-2

Let us now turn to COCCCN(Cc1cc(OC)c(OC)c(OC)c1)C(=S)Nc1cccc(Cl)c1
4

What would you report for Cc1ccc2occ/c(=N\Nc3ccccc3)c2c1 ?
70

Next record, please: CC(=O)N1C(=O)/C(=C\C(=O)c2ccc(Cl)cc2)c2ccccc21
96

For COC(=O)c1ccc2c(c1)Cc1ccccc1-2 then?
-4

Then S=c1[nH]c2c(Cl)c(Cl)c(Cl)c(Cl)c2[nH]1 ?
97

* * *

run_description: NCI Yeast Anticancer Drug Screen. Data for the bub3 strain (AID 167)
assay_context: S. cerevisiae bub3 mutant strain, at 50.0 µM (retest, dose inferred, filed as 5.0), active compounds read high
About 79,000 compounds went through this panel and 15% of them were active in at least one assay; those are over-represented in the sample as a whole. Calls of active or inactive are those of the source. Rule as the data show it: active = growth inhibition above about 70%; inactive = the rest.
Entries and their growth inhibition values follow.

Completed entries (count: 3):
compound	growth inhibition
CCCCCCCCN1C(=O)c2ccccc2C1=O	40% (inactive)
O=C(Nc1ccc2c(c1)Cc1c-2ccc([N+](=O)[O-])c1F)C(F)(F)F	12% (inactive)
CN(C)c1ccc(N=Nc2ccccn2)cc1	97% (active)

Which measured growth inhibition value corresponds to CCOC(=O)Nc1ccc2c(c1)Cc1ccccc1-2 ?
88% (active)

Input C/C(=N\NC(=S)NC1CCCC1)c1ccccn1
98% (active)

Quick one: O=S(=O)(N/N=C/c1cccc(Cl)c1)c1ccccc1
88% (active)

Repeat for the following compound: COCCCN(Cc1cc(OC)c(OC)c(OC)c1)C(=S)Nc1cccc(Cl)c1
79% (active)

Next compound: O=C(/C=C/c1cccc2ccccc12)c1ccc(Cl)cc1
17% (inactive)

Another: CCOC(=O)CNC(=O)c1[nH]cnc1/N=N/N(C)C
96% (active)

Could you do the same for CNc1nc(C)nc2c1cnn2-c1ccc([N+](=O)[O-])cc1 , please?
2% (inactive)

What about CC(=O)Oc1ccc(C(=O)c2ccccc2)c(O)c1 ?
88% (active)

And the next one, Cc1ccc(S(=O)(=O)N/N=C/C2(c3ccccc3)c3ccccc3-c3ccccc32)cc1 ?
90% (active)

Likewise for O=C1NC(c2c(Cl)cccc2Cl)Nc2ccccc21 (stereo not drawn) ?
87% (active)

* * *

run_description: NCI Yeast Anticancer Drug Screen. Data for the rad50EPP+ strain (AID 151);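 also: 0% = growth of vehicle-treated control cultures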
assay_context: S. cerevisiae rad50 mutant strain, at 100.0 µM
About 79,000 compounds went through this panel and 15% of them were active in at least one assay; those are over-represented in the sample as a whole. Activity calls are given as the source filed them. Cut-off read from the data, not from the text of the source: active = growth inhibition above about 70%; inactive = the rest.
Please state which outcome applies, choosing from y for active, n for inactive

compound_string	class
CN=C(N)N/N=C(\C)c1ccc2oc3ccc(/C(C)=N/NC(N)=NC)cc3c2c1	y
CCc1[nH]nc(C(N)=O)c1N=NN(C)C	y
Cc1ccc(I)cc1N=C=S	y
CCOC(=O)Nc1ccc2c(c1)Cc1ccccc1-2	n
CCOC(=O)c1csc(Br)n1	n

Now examine the next entry.
I'd appreciate the recorded outcome for O=Nc1ccc(Nc2ccccc2)cc1 from this test.
y

* * *

run_description: NCI Yeast Anticancer Drug Screen. Data for the wt2 strain (AID 169);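 also: 0% = growth of vehicle-treated yeast cultures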
assay_context: S. cerevisiae wt2 strain growth inhibition; at 33.0 µM; active compounds read high
About 79,000 compounds went through this panel and 15% of them were active in at least one assay; those are over-represented in the sample as a whole.
# cutoff 50% applies to growth inhibition; >= gives 1, < gives -1

Field: example entries. Status: answers known.
compound	class
N#C/C(=C\c1ccccc1)c1ccccc1F	-1
CCOc1ccc(C(=O)CCC(=O)O)c(C)c1	-1
Nc1nc2c(c(=O)[nH]1)NC(CCNc1ccc(C(=O)O)cc1)CN2 (stereo not given)	-1
O=C1c2cccc3cc([N+](=O)[O-])cc(c23)C(=O)N1CCN1CCCC1	-1
CCN(CC)CC(O)C1CCC(c2ccccc2)CC1 (stereo not given)	-1
S=c1[nH]c2c(Cl)c(Cl)c(Cl)c(Cl)c2[nH]1	1

Tell me whether growth inhibition is at least 50% here: NCc1c(O)ccc2ccccc12
1

Likewise for CN(N=O)C(=O)N[C@@H](C=O)[C@@H](O)[C@H](O)[C@H](O)CO ?
-1

Same question, S=P(N1CC1)(N1CC1)N1CC1 this time
-1

Please give the result for CC(=O)[C@]1(O)Cc2c(O)c3c(c(O)c2[C@@H](OC2CC(N)C(O)C(C)O2)C1)C(=O)c1c(OCc2ccccc2)cccc1C3=O (stereo not given in full) too.
-1

What do you get for CC(=O)CC(=O)/C=C/c1cccs1 ?
-1

* * *

run_description: NCI Yeast Anticancer Drug Screen. Data for the mec2-1 strain (AID 157)
assay_context: S. cerevisiae mec2-1 strain, at 5.0 µM (retest, dose inferred, filed as 0.5)
Description: Growth inhibition of yeast strains with defined genetic alterations is measured as a screen for potential anti-cancer activity. Selected strains with alterations in DNA damage repair or cell cycle control were exposed to compounds and growth inhibition was measured relative to vehicle treated controls. The strain used in this assay is mec2-1
Compounds without any hit were thinned out: in the full panel of roughly 79,000, 15% have a hit. Active and inactive are the calls of the source. Rule as the data show it: active = growth inhibition above about 70%; inactive = the rest.
# valid calls are true (active), false (inactive); nothing else

compound	class
O=C1c2c(O)cccc2-c2nn(CCNCCO)c3ccc(NCCNCCO)c1c23	false
CCOc1ccc(C(=O)CCC(=O)O)c(C)c1	false
C(=N/NC1=NCCN1)/c1c2ccccc2c(/C=N\NC2=NCCN2)c2ccccc12	false
Cc1cc(OCc2ccccc2)ccc1[N+](=O)[O-]	false
CCOC(=O)c1csc(Br)n1	false
Cc1cc(N=C2C=CC(=[N+](C)C)C=C2)c(N)cc1N	false
O=C(NC(=S)Nc1ccccn1)c1ccccc1	true
[N-]=[N+]=NC(c1ccccc1)(c1ccccc1)c1ccccc1	true

Lab log entry: Clc1c(Cl)c(Cl)c2n[nH]nc2c1Cl — outcome as called in the assay?
true

CC1C(C#N)(C#N)C(C#N)=C(N)C1(Cl)[N+](=O)[O-] (stereo not given) ?
false

Note, next up: c1ccc(N2N=C3N(c4ccccc4)C2N3c2ccccc2)cc1
false

Next compound up: CO[C@@]12[C@H](COC(N)=O)C3=C(C(=O)C(C)=C(N)C3=O)N1C[C@@H]1N[C@@H]12
false

One more compound: CCc1[nH]nc(C(N)=O)c1N=NN(C)C
false

Please give the result for O=C1c2ccccc2CCC1(Br)Br too.
false

Would you mind doing CC1=CC2C(C(C)C)CC1C1C(=O)OC(=O)C21 (stereo not given) as well?
false

Now give it for C=C(C)[C@@H]1CCc2c(O)c(O)c(=O)cc(C)c2C1 too.
false

Repeat with NC(N)=N/N=C/c1cc(Cl)cc(Cl)c1O
true

What do you have for O=C(O)c1[nH]c(=O)c2ccccc2c1Nc1ccccc1 ?
false

Another: COc1ccc2oc(-c3ccc(Cl)cc3)c(N3CCN(C)CC3)c2c1
false

Again, but for Nc1nc2c(c(=O)[nH]1)NC(CCNc1ccc(C(=O)O)cc1)CN2 (stereo not given)
false

And what about the compound CCCCC(=O)c1c(O)nc2sccn2c1=O ?
false

Also, O/N=C/C1c2ccccc2-c2ccccc21 please.
false

How about NP1(Oc2ccc(F)cc2)=NP(N)(Oc2ccc(F)cc2)=NP(Oc2ccc(F)cc2)(Oc2ccc(F)cc2)=N1 (stereo not given) ?
false

Queued: O=C1c2ccccc2C(=O)c2cc(S(=O)(=O)Nc3ccccc3)ccc21
false

Now the same for CCCc1[nH]nc(C(N)=O)c1N=NN(C)C
false

Input COC(=O)c1ccc2c(c1)Cc1ccccc1-2
false

# repeat for C/C=C/[P+](c1ccccc1)(c1ccccc1)c1ccccc1
false

Moving on to Cc1cc(Cl)nc2nc(Cl)c(N)cc12
false

Would you mind doing Cc1ccc(S(=O)(=O)Nc2ccc3c(c2)C(O)c2ccccc2-3)cc1 (stereo not given) as well?
false

// same read-out, input: c1ccc2c(c1)Cn1c-2nc2ccccc21
true
